system: lung carcinoma A549; assay: Antiproliferative activity, SRB assay, A549; format: cell-based, human; settings: Homo sapiens, A549; 72 h incubation, SRB, mean ± SD
ENDPOINT: IC50 (mg/L)
Please respond with the number in mg/L and leave the unit unwritten.

Answered cases to consult:
COMPOUND	VALUE_UNITS	IC50
CCCCCc1cc(O)c2c(c1)OC(C)(C)c1ccc(C)cc1-2	mg/L	3.3
CCCCCc1cc(O)c(C/C=C(\C)CCC=C(C)C)c(O)c1	mg/L	3.71
CCCCCc1cc(O)c2c(c1)OC(C)(CCC=C(C)C)C=C2 (stereo not shown)	mg/L	3.26

Then this compound:
Exam item: What does the record list as IC50 for C=C(C)[C@@H]1CCC(C)=C[C@H]1c1c(O)cc(CCCCC)cc1O ?
Marked response: 2.87

* * *

system: breast cancer MCF-7 (ER+); experiment: Antiproliferative activity, SRB assay, MCF-7; assay type: cell-based, human; settings: SI = IC50 MCF-10A / IC50 MCF-7
ENDPOINT: Calculated Selectivity Index SI MCF-7

Study these solved cases before continuing.
COMPOUND	ENDPOINT	ASSAY_RESULT
CCCCCc1cc(O)c(C/C=C(\C)CCC=C(C)C)c(O)c1	Calculated Selectivity Index SI MCF-7	1.45
CCCCCc1cc(O)c2c(c1)OC(C)(C)[C@@H]1CCC(C)=C[C@@H]21 (relative stereo) [THC, (–)-trans-Δ^9-tetrahydrocannabinol]	Calculated Selectivity Index SI MCF-7	1.33
C=C(C)[C@@H]1CCC(C)=C[C@H]1c1c(O)cc(CCCCC)cc1O	Calculated Selectivity Index SI MCF-7	2.87

Exam item: Which value of Calculated Selectivity Index SI MCF-7 has been reported for C=C(C)[C@@H]1CCC(C)=C[C@H]1c1c(O)cc(CCC)cc1O in the records?
Marked response: 1.33

Exam item: # query: Calculated Selectivity Index SI MCF-7 of entry CCCCCc1cc(O)c2c(c1)OC(C)(CCC=C(C)C)C=C2 (stereo not drawn)
Marked response: 1.39

Exam item: Could you share which Calculated Selectivity Index SI MCF-7 value was measured for CCCCCc1cc(O)c2c(c1)OC(C)(C)c1ccc(C)cc1-2 ?
Marked response: 1.87

* * *

IC50 overview
Test system: normal breast epithelial MCF-10A cells
Assay: Cytotoxicity, SRB assay, MCF-10A
Format: cell-based, human
Settings: Homo sapiens, MCF-10A, 72 h incubation, non-tumorigenic cells, mean ± SD
Method: Two extracts, Futu 1 and Futu 2, were selected for the study of their antiproliferative activity against six human cancer cell lines: biphenotypic B myelomonocytic leukemia (MV4-11), lung carcinoma (A549), colon adenocarcinoma (HT-29), gastric adenocarcinoma (AGS), and breast carcinomas (MCF-7 (ER+) and MDA-MB-468 (TNBC)). Additionally, their cytotoxicity and potential safety for use were assessed on normal human breast epithelial cells (MCF-10A). […]
Just the number please, in mg/L, no unit attached.

MOLECULE	TEST_TARGET	VALUE_UNITS	ASSAY_RESULT
C=C(C)[C@@H]1CCC(C)=C[C@H]1c1c(O)cc(CCCCC)cc1O [CBD, cannabidiol]	normal breast epithelial MCF-10A cells	mg/L	10.6
CCCCCc1cc(O)c2c(c1)OC(C)(C)c1ccc(C)cc1-2 [CBN, cannabinol]	normal breast epithelial MCF-10A cells	mg/L	10.8
CCCCCc1cc(O)c(C/C=C(\C)CCC=C(C)C)c(O)c1 [CBG, cannabigerol]	normal breast epithelial MCF-10A cells	mg/L	10.7

Then there is this molecule:
Exam item: Given CCCCCc1cc(O)c2c(c1)OC(C)(CCC=C(C)C)C=C2 (stereo not shown) [CBC, cannabichromene] , state its recorded IC50.
Marked response: 10.5
